Biological target: Free fatty acid receptor 1 (Homo sapiens, UniProt O14842)
Sequence (O14842 whole entry): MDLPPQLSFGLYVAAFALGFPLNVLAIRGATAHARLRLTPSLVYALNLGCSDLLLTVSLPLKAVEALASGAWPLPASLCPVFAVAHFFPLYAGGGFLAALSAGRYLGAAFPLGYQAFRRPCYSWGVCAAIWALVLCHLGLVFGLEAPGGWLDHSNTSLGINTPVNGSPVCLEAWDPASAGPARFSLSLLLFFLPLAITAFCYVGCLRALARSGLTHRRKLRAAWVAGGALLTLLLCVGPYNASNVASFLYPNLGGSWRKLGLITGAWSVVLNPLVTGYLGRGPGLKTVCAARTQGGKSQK
Assay: Agonist activity at human GPR40 expressed in CHO cells incubated for 60 mins by FLIPR based Ca2+ mobilization assay
Property measured: EC50
# output: number + unit

Form field EC50 for item COc1ccc(C(=O)N(CC(C)(C)C)c2cccc(C)n2)c(N2CCC(COc3cccc(C(CC(=O)O)OC)c3)CC2)c1 (stereo not drawn) on Free fatty acid receptor 1 (Homo sapiens, UniProt O14842): 62 nM

Form: item COc1ccc(CCC(C)(C)O)c(N2CCC(COc3cccc(C(CC(=O)O)C4CC4)c3)CC2)c1 (stereo not drawn) ; test system Free fatty acid receptor 1 (Homo sapiens, UniProt O14842); EC50: 970 nM

Note to self: EC50 of COc1ccc(C(=O)N(CC(C)(C)C)c2ccccn2)c(N2CCC(COc3cccc(C(CC(=O)O)C4CC4)c3)CC2)c1 (stereo not drawn) with Free fatty acid receptor 1 (Homo sapiens, UniProt O14842) was 26 nM

Item COc1ccc(C(=O)N(CC(C)(C)C)c2cccc(C)n2)c(N2CCC(COc3cc(C(CC(=O)O)C4CC4)ccn3)CC2)c1 (stereo not drawn) ; assay system Free fatty acid receptor 1 (Homo sapiens, UniProt O14842); EC50 reported as 17 nM

# value of EC50, Free fatty acid receptor 1 (Homo sapiens, UniProt O14842), item "COc1ccc(F)c(-c2ccc(COc3cccc([C@@H](CC(=O)O)C4CC4)c3)cc2C2=CCCC2(C)C)c1" = 150 nM

Entry COc1ccc(F)c(N2CCC(COc3cccc(C(CC(=O)O)C4CC4)c3)CC2)c1 (stereo not drawn) under Free fatty acid receptor 1 (Homo sapiens, UniProt O14842) had EC50 of 670 nM

The reported Free fatty acid receptor 1 (Homo sapiens, UniProt O14842) EC50 of COc1ccc(C(=O)N(C)CC(C)(C)C)c(N2CCC(COc3cccc(C(CC(=O)O)C4CC4)c3)CC2)c1 (stereo not drawn) is 100 nM

The recorded EC50 with Free fatty acid receptor 1 (Homo sapiens, UniProt O14842) for "COc1ccc(C(=O)N(CC(C)(C)C)c2cccc(C)n2)c(N2CCC(COc3cccc(C4(CC(=O)O)COC4)c3)CC2)c1" was 840 nM

Source listed as ChEMBL document CHEMBL4725394.
